# credit: paper PMC8119466

target: recombinant PRL-3 (Homo sapiens, UniProt O75365); construct: 6xHis (N, cleaved yes); made in house; host or cells: E. coli One Shot BL21 Star; assay: In vitro phosphatase assay (DiFMUP hydrolysis), PRL-3; format: biochemical; settings: FDA-approved drug screen; compared to DMSO; also: test concentration or dose not given here
Sequence (O75365 whole entry): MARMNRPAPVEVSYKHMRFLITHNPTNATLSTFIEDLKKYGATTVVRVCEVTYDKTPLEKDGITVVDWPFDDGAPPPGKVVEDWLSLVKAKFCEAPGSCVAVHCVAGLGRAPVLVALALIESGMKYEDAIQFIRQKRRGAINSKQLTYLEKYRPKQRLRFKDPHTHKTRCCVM
endpoint: % Phosphatase Activity (compared to DMSO) PRL-3 (%)

- molecule: "N#C[C@@H]1C[C@@H]2C[C@@H]2N1C(=O)[C@@H](N)C12CC3CC(CC(O)(C3)C1)C2 [Saxagliptin]"
  uom: "%"
  readout_number: 79
- molecule: "CCc1c2c(nc3ccc(OC(=O)N4CCC(N5CCCCC5)CC4)cc13)-c1cc3c(c(=O)n1C2)COC(=O)[C@]3(O)CC.Cl.O.O.O [Irinotecan HCl Trihydrate]"
  uom: "%"
  readout_number: 4074
- molecule: "O=C(O)c1ccc(-n2nc(-c3ccccc3O)nc2-c2ccccc2O)cc1 [Deferasirox]"
  uom: "%"
  readout_number: 81
- molecule: "Cc1cc2c(s1)Nc1ccccc1N=C2N1CCN(C)CC1 [Olanzapine]"
  uom: "%"
  readout_number: 80

* * *

% Phosphatase Activity (compared to DMSO) PRL-1 values for the molecules below.
Molecular target: recombinant PRL-1 (Homo sapiens, UniProt Q93096)
Construct: 6xHis (N, cleaved yes); made in house; host or cells: E. coli One Shot BL21 Star
Sequence (Q93096 1-173): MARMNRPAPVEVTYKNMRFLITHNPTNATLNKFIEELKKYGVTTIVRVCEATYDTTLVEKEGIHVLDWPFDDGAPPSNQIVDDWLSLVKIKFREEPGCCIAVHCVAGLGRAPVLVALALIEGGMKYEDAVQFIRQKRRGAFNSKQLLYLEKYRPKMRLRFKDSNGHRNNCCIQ
Assay: In vitro phosphatase assay (DiFMUP hydrolysis), PRL-1; also: test concentration or dose not given here
Assay type: biochemical
Settings: FDA-approved drug screen; activity compared to DMSO
Counter-ions that a name gives are not always drawn.
endpoint: % Phosphatase Activity (compared to DMSO) PRL-1 (%)

- molecule: "COc1ccc(CN2CCNCC2)c(OC)c1OC [Trimetazidine dihydrochloride]"
  readout_number: 95
- molecule: "Cn1c(COP(=O)(NCCBr)NCCBr)cnc1[N+](=O)[O-] [TH-302]"
  readout_number: 91
- molecule: "Cc1cc(C)nc(NS(=O)(=O)c2ccc(N)cc2)n1 [Sulfamethazine]"
  readout_number: 108
- molecule: "CCC(C)(C)C(=O)O[C@H]1C[C@@H](C)C=C2C=C[C@H](C)[C@H](CC[C@@H]3C[C@@H](O)CC(=O)O3)[C@H]21 [Simvastatin]"
  readout_number: 84
- molecule: "O=C(CCCCCCC(=O)Nc1ccccc1)NO [Vorinostat (SAHA, MK0683)]"
  readout_number: 98
- molecule: "CCN1CCCC1CNC(=O)c1cc(S(N)(=O)=O)ccc1OC (stereo not shown) [Sulpiride]"
  readout_number: 89
- molecule: "C[C@H](CCC(=O)O)[C@H]1CC[C@H]2[C@@H]3[C@@H](O)C[C@@H]4C[C@H](O)CC[C@]4(C)[C@H]3CC[C@]12C [Ursodiol]"
  readout_number: 96
- molecule: "N[C@@H](CC(=O)N1CCn2c(nnc2C(F)(F)F)C1)Cc1cc(F)c(F)cc1F [Sitagliptin phosphate monohydrate]"
  readout_number: 117
- molecule: "Cn1nnc(-c2ccc(-c3ccc(N4C[C@H](COP(=O)(O)O)OC4=O)cc3F)cn2)n1 [Tedizolid Phosphate]"
  readout_number: 97
- molecule: "Cc1cccc(Nc2ccncc2S(=O)(=O)NC(=O)NC(C)C)c1 [Torsemide]"
  readout_number: 99
- molecule: "CNS(=O)(=O)Cc1ccc2[nH]cc(CCN(C)C)c2c1 [Sumatriptan Succinate]"
  readout_number: 99
- molecule: "COc1ccc(NS(=O)(=O)c2ccc(N)cc2)nn1 [Sulfamethoxypyridazine]"
  readout_number: 94
- molecule: "CC(=O)[C@@]1(O)CC[C@H]2[C@@H]3CCC4=CC(=O)CCC4=C3[C@@H](c3ccc(N(C)C)cc3)C[C@@]21C [Ulipristal]"
  readout_number: 95
- molecule: "CCOc1ccc(Cc2cc([C@@H]3O[C@H](SC)[C@@H](O)[C@H](O)[C@H]3O)ccc2Cl)cc1 [Sotagliflozin (LX4211)]"
  readout_number: 100
- molecule: "O=S(=O)(O)Oc1ccc(C(c2ccc(OS(=O)(=O)O)cc2)c2ccccn2)cc1 [Sodium Picosulfate]"
  readout_number: 115
- molecule: "C[C@]12C=CC(=O)C=C1CC[C@H]1[C@@H]3C[C@@H](O)[C@](O)(C(=O)CO)[C@@]3(C)C[C@H](O)[C@@]12F [Triamcinolone]"
  readout_number: 91

* * *

% Phosphatase Activity (compared to DMSO) PRL-2 values for the compounds below.
molecular target: recombinant PRL-2 (Homo sapiens, UniProt Q12974); construct: 6xHis (N, cleaved yes); made in house; host or cells: E. coli One Shot BL21 Star; test: In vitro phosphatase assay (DiFMUP hydrolysis), PRL-2; format: biochemical; conditions: FDA-approved drug screen; activity compared to DMSO;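 also: PRL-2 activity read as DiFMUP hydrolysis after 20 min at room temperature with drug, enzyme first pre-reduced at 4 °C for 20 min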
Sequence (Q12974 whole entry): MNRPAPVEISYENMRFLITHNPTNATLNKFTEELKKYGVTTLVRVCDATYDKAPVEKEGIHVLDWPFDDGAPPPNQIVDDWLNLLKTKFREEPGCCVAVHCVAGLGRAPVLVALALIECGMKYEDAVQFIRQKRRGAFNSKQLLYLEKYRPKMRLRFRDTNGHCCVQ
Counter-ions that a name gives are not always drawn.
endpoint: % Phosphatase Activity (compared to DMSO) PRL-2

- compound: "CC(=O)S[C@@H]1CC2=CC(=O)CC[C@]2(C)[C@H]2CC[C@@]3(C)[C@@H](CC[C@@]34CCC(=O)O4)[C@H]12"
  result: "87%"
- compound: "Cn1nnc2c(C(N)=O)ncn2c1=O [Temozolomide]"
  result: "94%"
- compound: "CC(C)[C@H](N)C(=O)OCC(CO)OCn1cnc2c(=O)nc(N)[nH]c21 (some centres unmarked) [Valganciclovir HCl]"
  result: "97%"
- compound: "Nc1ncnc2c1ncn2[C@@H]1O[C@H](CO)[C@@H](O)[C@@H]1O"
  result: "116%"
- compound: "CCCc1nc2c(C)cc(-c3nc4ccccc4n3C)cc2n1Cc1ccc(-c2ccccc2C(=O)O)cc1"
  result: "77%"
- compound: "N#C[C@@H]1CCCN1C(=O)CNC12CC3CC(CC(O)(C3)C1)C2"
  result: "136%"
- compound: "CN(C(=O)c1ccc(F)cc1C(F)(F)F)C1CCN(c2nnc(-c3ccnn3C)c3ccccc23)CC1"
  result: "107%"
- compound: "OC[C@@H](O)[C@H](O)[C@@H](O)CO"
  result: "99%"

* * *

Target: recombinant PRL-1 (Homo sapiens, UniProt Q93096)
Construct: 6xHis (N, cleaved yes); made in house; host or cells: E. coli One Shot BL21 Star
Sequence (Q93096 1-173): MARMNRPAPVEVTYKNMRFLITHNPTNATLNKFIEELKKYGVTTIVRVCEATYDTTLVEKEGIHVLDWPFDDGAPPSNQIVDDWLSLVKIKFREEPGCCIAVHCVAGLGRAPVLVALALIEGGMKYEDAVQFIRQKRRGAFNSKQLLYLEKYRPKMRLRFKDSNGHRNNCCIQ
Assay: In vitro phosphatase assay (DiFMUP hydrolysis), PRL-1; also: test concentration or dose not given here
Format: biochemical
Conditions: FDA-approved drug screen; compared to DMSO
Counter-ions that a name gives are not always drawn.
endpoint: % Phosphatase Activity (compared to DMSO) PRL-1 (%)

- compound: "CC(C)C(=O)Nc1ccc([N+](=O)[O-])c(C(F)(F)F)c1 [Flutamide]"
  readout_number: 81
- compound: "[NH2][Pt]1([NH2])[O]CC(=O)[O]1"
  readout_number: 102
- compound: "CN(Cc1ccc(C(C)(C)C)cc1)Cc1cccc2ccccc12 [Butenafine HCl]"
  readout_number: 117
- compound: "Cc1c(OCC(F)(F)F)ccnc1C[S@@+]([O-])c1nc2ccccc2[nH]1"
  readout_number: 95
- compound: "C[C@@H](O)[C@@H]1NC(=O)[C@H](CCCCN)NC(=O)[C@@H](Cc2c[nH]c3ccccc23)NC(=O)[C@H](Cc2ccccc2)NC(=O)[C@@H](NC(=O)[C@H](N)Cc2ccccc2)CSSC[C@@H](C(=O)N[C@H](CO)[C@@H](C)O)NC1=O [Octreotide Acetate]"
  readout_number: 99
- compound: "O=C1NC(=O)C(c2ccccc2)(c2ccccc2)N1 [Phenytoin sodium]"
  readout_number: 100
- compound: "CC(=O)SCC(Cc1ccccc1)C(=O)NCC(=O)OCc1ccccc1 (centres unmarked)"
  readout_number: 95
- compound: "CCCC(=O)OCOC(=O)C1=C(C)NC(C)=C(C(=O)OC)C1c1cccc(Cl)c1Cl (centres unmarked) [Clevidipine Butyrate]"
  readout_number: 473

* * *

Target: recombinant PRL-1 (Homo sapiens, UniProt Q93096)
Construct: 6xHis (N, cleaved yes); made in house; host or cells: E. coli One Shot BL21 Star
Sequence (Q93096 1-173): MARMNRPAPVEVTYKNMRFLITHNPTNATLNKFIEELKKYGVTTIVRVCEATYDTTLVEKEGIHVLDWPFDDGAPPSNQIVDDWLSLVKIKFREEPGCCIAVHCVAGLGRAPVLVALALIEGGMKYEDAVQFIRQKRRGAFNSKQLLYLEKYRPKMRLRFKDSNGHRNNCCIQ
Test: In vitro phosphatase assay (DiFMUP hydrolysis), PRL-1; also: test concentration or dose not given here
Assay type: biochemical
Settings: FDA-approved drug screen; activity compared to DMSO
Counter-ions that a name gives are not always drawn.
endpoint: % Phosphatase Activity (compared to DMSO) PRL-1 (%)

- compound: "C[C@]12CC[C@H]3[C@@H](CC[C@@]45O[C@@H]4C(O)=C(C#N)C[C@]35C)[C@@H]1CC[C@@H]2O [Trilostane]"
  target: "recombinant PRL-1 (Homo sapiens, UniProt Q93096)"
  readout_number: 97
- compound: "CC/C(=C(\\c1ccccc1)c1ccc(OCCN(C)C)cc1)c1ccccc1 [Tamoxifen Citrate]"
  target: "recombinant PRL-1 (Homo sapiens, UniProt Q93096)"
  readout_number: 84
- compound: "CNC(=O)c1ccc2cc([C@@]3(O)CCn4cncc43)ccc2c1 [TAK-700 (Orteronel)]"
  target: "recombinant PRL-1 (Homo sapiens, UniProt Q93096)"
  readout_number: 128
- compound: "Nc1ccc(S(=O)(=O)Nc2nccs2)cc1 [Sulfathiazole]"
  target: "recombinant PRL-1 (Homo sapiens, UniProt Q93096)"
  readout_number: 119
- compound: "CN[C@H]1CC[C@@H](c2ccc(Cl)c(Cl)c2)c2ccccc21 [Sertraline HCl]"
  target: "recombinant PRL-1 (Homo sapiens, UniProt Q93096)"
  readout_number: 96
- compound: "CC(C)Nc1cc(-c2c[nH]c(C(=O)N[C@H](CO)c3cccc(Cl)c3)c2)c(Cl)cn1 [Ulixertinib (BVD-523, VRT752271)]"
  target: "recombinant PRL-1 (Homo sapiens, UniProt Q93096)"
  readout_number: 99
- compound: "CC(=O)NS(=O)(=O)c1ccc(N)cc1 [Sulfacetamide Sodium]"
  target: "recombinant PRL-1 (Homo sapiens, UniProt Q93096)"
  readout_number: 91
- compound: "C[C@@H]1CN(c2c(F)c(N)c3c(=O)c(C(=O)O)cn(C4CC4)c3c2F)C[C@H](C)N1 [Sparfloxacin]"
  target: "recombinant PRL-1 (Homo sapiens, UniProt Q93096)"
  readout_number: 87
- compound: "Cc1ccsc1C(=CCCN1CCC[C@@H](C(=O)O)C1)c1sccc1C [Tiagabine hydrochloride]"
  target: "recombinant PRL-1 (Homo sapiens, UniProt Q93096)"
  readout_number: 100
- compound: "COc1cc2nc(N3CCN(C(=O)C4CCCO4)CC3)nc(N)c2cc1OC (stereo not shown) [Terazosin]"
  target: "recombinant PRL-1 (Homo sapiens, UniProt Q93096)"
  readout_number: 595
- compound: "CC(C)(C)NCC(O)c1cc(O)cc(O)c1 (stereo not shown) [Terbutaline Sulfate]"
  target: "recombinant PRL-1 (Homo sapiens, UniProt Q93096)"
  readout_number: 95
- compound: "O=C(O[C@H]1C[C@H]2CC[C@@H](C1)[N+]21CCCC1)C(O)(c1ccccc1)c1ccccc1 [Trospium chloride]"
  target: "recombinant PRL-1 (Homo sapiens, UniProt Q93096)"
  readout_number: 109
- compound: "CC(C)[C@H](N)C(=O)OCCOCn1cnc2c(=O)nc(N)[nH]c21.Cl [Valaciclovir HCl]"
  target: "recombinant PRL-1 (Homo sapiens, UniProt Q93096)"
  readout_number: 97
- compound: "CC(=O)Oc1cc(C(F)(F)F)ccc1C(=O)O [Triflusal]"
  target: "recombinant PRL-1 (Homo sapiens, UniProt Q93096)"
  readout_number: 108
- compound: "Cc1ccc(-c2nc3ccc(C)cn3c2CC(=O)N(C)C)cc1 [Zolpidem]"
  target: "recombinant PRL-1 (Homo sapiens, UniProt Q93096)"
  readout_number: 98
- compound: "[H]/N=C(/N)N[C@H]1[C@H](O)[C@@H](O)[C@H](O[C@@H]2O[C@@H](C)[C@](O)(C=O)[C@H]2O[C@@H]2O[C@@H](CO)[C@H](O)[C@@H](O)[C@@H]2NC)[C@@H](N/C(N)=N\\[H])[C@@H]1O [Streptomycin sulfate]"
  target: "recombinant PRL-1 (Homo sapiens, UniProt Q93096)"
  readout_number: 105
